Target: Sa-ClpP (Staphylococcus aureus)
Construct: made in house; host or cells: E. coli BL21(DE3)
Sequence (Q2G036 whole entry): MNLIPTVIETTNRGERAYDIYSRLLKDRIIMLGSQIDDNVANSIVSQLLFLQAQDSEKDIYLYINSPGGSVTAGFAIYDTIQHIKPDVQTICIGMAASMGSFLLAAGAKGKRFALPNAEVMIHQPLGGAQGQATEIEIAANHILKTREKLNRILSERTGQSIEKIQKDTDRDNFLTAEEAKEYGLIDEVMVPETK
Experiment: Sa-ClpP casein-BODIPY ClpP activation assay, method variant not marked in Table 5
Format: biochemical, S. aureus
Conditions: values without ** or † mark; assay variant not stated; read-out: ClpP Activation EC50
Protocol: The compounds were assayed in a casein digestion assay in order to determine their effect on ClpP activation. Briefly, the assay was carried out using S. aureus ClpP (“Sa-ClpP”) overexpressed in E. coli BL21(DE3) and purified in a two-step process. Purity of the protein was assessed through SDS PAGE analysis. […] Velocity of each reaction was calculated and data was fit to a dose response curve using GraphPad Prism® software (GraphPad Software, Inc., La Jolla, Calif.). […]
*1 amine or outer side, *2 acyl side, *3 side chain or, on linkers, in order; H or OH if unused. Where a SMILES comes first, the peptide text is derived from it. Bridges are numbered along the chain shown (N, C = ends). [ ]: non-standard residue; d: D form. The star is where a group is joined. Phe(3,5-F2) = N[C@@H](Cc1cc(F)cc(F)c1)C(=O)O; Pro(4S-Me) = C[C@@H]1CN[C@H](C(=O)O)C1; Hyp = O=C(O)[C@@H]1C[C@@H](O)CN1; NH(4-Me-phenyl) = Cc1ccc(N*)cc1; aThr = C[C@H](O)[C@H](N)C(=O)O; NMeA = CN[C@@H](C)C(=O)O; CO = O=C([*:1])[*:2]
Measured quantity: pEC50
# pEC50: negative log10 of molar concentration; output just the value

[
  {
    "Compound": "Cc1ccc(NC(=O)N[C@@H](Cc2cc(F)cc(F)c2)C(=O)N[C@@H]2C(=O)N3C[C@H](O)C[C@H]3C(=O)N(C)[C@@H](C)C(=O)N[C@@H](C)C(=O)N3C[C@@H](C)C[C@H]3C(=O)O[C@H]2C)cc1 [Compound 214] ({NH(4-Me-phenyl)-CO}-[Phe(3,5-F2)][aThr][Hyp][NMeA]A[Pro(4S-Me)]; ester 2-C)",
    "pEC50": 5.89
  }
]

For record Cc1ccc(NC(=O)N[C@@H](Cc2cc(F)cc(F)c2)C(=O)N[C@H]2COC(=O)[C@@H]3C[C@@H](C)CN3C(=O)[C@H](C)NC(=O)[C@@H]3CCCCN3C(=O)[C@@H]3CCCN3C2=O)cc1C the listed pEC50 is 5.08

---

Please consider the recorded MIC for Staphylococcus aureus, USA 300 in what follows.
*1 amine or outer side, *2 acyl side, *3 side chain or, on linkers, in order; H or OH if unused. Where a SMILES comes first, the peptide text is derived from it. Bridges are numbered along the chain shown (N, C = ends). [ ]: non-standard residue; d: D form. The star is where a group is joined. Phe(3,5-F2) = N[C@@H](Cc1cc(F)cc(F)c1)C(=O)O; NH(1-Me-indolin-5-yl) = CN1CCc2cc(N*)ccc21; Morpholine(3S-CO) = O=C(O)[C@@H]1COCCN1; Pro(4S-Me) = C[C@@H]1CN[C@H](C(=O)O)C1; Pro(4R-Me) = C[C@H]1CN[C@H](C(=O)O)C1; Hyp = O=C(O)[C@@H]1C[C@@H](O)CN1; NH(4-Et-phenyl) = CCc1ccc(N*)cc1; NMeT = CN[C@H](C(=O)O)[C@@H](C)O; aThr = C[C@H](O)[C@H](N)C(=O)O; Pip = O=C(O)[C@@H]1CCCCN1; X8 = c1cc2c(cc1N*)CCO2; CO = O=C([*:1])[*:2]
Express the result in µM but write the number alone.

Field MIC (system: Staphylococcus aureus, USA 300) for entry O=C(N[C@H](CO)[C@H](O)c1ccc([N+](=O)[O-])cc1)C(Cl)Cl [Chloroamphenicol, chloramphenicol, reference compound] = 3.1

Measured on Staphylococcus aureus, USA 300, CCc1ccc(NC(=O)N[C@@H](Cc2cc(F)cc(F)c2)C(=O)N[C@@H]2C(=O)N3C[C@H](O)C[C@H]3C(=O)N3CCOC[C@H]3C(=O)N[C@@H](C)C(=O)N3C[C@H](C)C[C@H]3C(=O)O[C@H]2C)cc1 [Compound 320] ({NH(4-Et-phenyl)-CO}-[Phe(3,5-F2)][aThr][Hyp][Morpholine(3S-CO)]A[Pro(4R-Me)]; ester 2-C) has a documented MIC of 0.781

The reported Staphylococcus aureus, USA 300 MIC of C[C@@H]1C[C@H]2C(=O)O[C@@H](C)[C@H](NC(=O)[C@H](Cc3cc(F)cc(F)c3)NC(=O)Nc3ccc4c(c3)CCN4C)C(=O)N3CCC[C@H]3C(=O)N3CCOC[C@H]3C(=O)N[C@@H](C)C(=O)N2C1 [Compound 312] ({NH(1-Me-indolin-5-yl)-CO}-[Phe(3,5-F2)][aThr]P[Morpholine(3S-CO)]A[Pro(4R-Me)]; ester 2-C) is 0.156

The recorded MIC with Staphylococcus aureus, USA 300 for CCc1ccc(NC(=O)N[C@@H](Cc2cc(F)cc(F)c2)C(=O)N[C@@H]2C(=O)N3CCC[C@H]3C(=O)N(C)[C@@H]([C@@H](C)O)C(=O)N[C@@H](C)C(=O)N3C[C@@H](C)C[C@H]3C(=O)O[C@H]2C)cc1 [Compound 37] ({NH(4-Et-phenyl)-CO}-[Phe(3,5-F2)][aThr]P[NMeT]A[Pro(4S-Me)]; ester 2-C) was 0.1

So the reported MIC for C[C@@H]1C[C@H]2C(=O)O[C@@H](C)[C@H](NC(=O)[C@H](Cc3cc(F)cc(F)c3)NC(=O)Nc3ccc4c(c3)CCO4)C(=O)N3CCC[C@H]3C(=O)N3CCCC[C@H]3C(=O)N[C@@H](C)C(=O)N2C1 [Compound 305] ({X8-CO}-[Phe(3,5-F2)][aThr]P[Pip]A[Pro(4R-Me)]; ester 2-C) , on Staphylococcus aureus, USA 300, turned out to be 0.24
